Biological target: UniProtKB Q9Y5Y4
Assay: hCRTH2 receptor membranes radioligand displacement assay (3H-PGD2)
Details: 3H-PGD2 2.5 nM, HEK293-hCRTH2 membranes, Binding-Buffer with 0.1% BSA
Let's look at some compounds and their measured IC50.
I only need the number, in nM, no unit after it.

1. COCCN(c1ncc(Cl)cn1)[C@H]1CCc2c(c3cc(F)ccc3n2CC(=O)O)C1 [Example 34]	5.9
2. CN(c1nc2ccc(Cl)cc2o1)[C@H]1CCc2c(c3cc(F)ccc3n2CC(=O)O)C1 [Example 40]	2
3. CCN(c1ncc(Cl)cn1)[C@H]1CCc2c(c3cc(F)ccc3n2CC(=O)O)C1 [Example 24]	1.7

From here, focus on the item given below.
Field IC50 (entry CN(c1ncc(-c2ccccc2)cn1)[C@H]1CCc2c(c3cc(F)ccc3n2CC(=O)O)C1 [Example 30] ) reads 11

* * *

Catalogue of molecules with associated pIC50
Biological target: hCRTH2 receptor (Homo sapiens (Human))
Test: hCRTH2 receptor membranes radioligand displacement assay (3H-PGD2)
Conditions: 3H-PGD2 2.5 nM, HEK293-hCRTH2 membranes, Binding-Buffer with 0.1% BSA
Description: Biological Assays: Preparation of hCRTH2 Receptor Membranes and Radioligand Displacement Assay: First, recombinant HEK293-hCRTH2 cells were detached from culture plates into 5 ml buffer A/plate (Buffer A: 5 mM Tris, 1 mM MgCl2-6H2O pH=7.4) using a rubber policeman. […] Binding assay was performed in a final assay volume of 250 μl. […] Then, 40 μl of Microscint-40 (Packard) was added to each well and the retained radioactivity quantified in a Topcount (Packard).
Interpret pIC50 as the negative base-10 log of the concentration measured in mol/L.

1. COc1cnc(N(C)[C@H]2CCc3c(c4cc(F)ccc4n3CC(=O)O)C2)nc1	8.14
2. CN(c1cc(C(C)(C)C)on1)C1CCc2c(c3cc(F)ccc3n2CC(=O)O)C1 (centres unmarked)	7.14
3. O=C(O)Cn1c2c(c3cc(F)ccc31)C[C@@H](N(CC1CC1)c1ncc(Cl)cn1)CC2	8.77

The reported pIC50 of the molecule CN(c1cnc2ccccc2n1)[C@H]1CCc2c(c3cc(F)ccc3n2CC(=O)O)C1 was 7.96

Summary for this molecule, Cc1nnc(N(C)C2CCc3c(c4cc(F)ccc4n3CC(=O)O)C2)s1 (centres unmarked) : pIC50 is 6.90

The measured pIC50 associated with CN(c1nc2ccc(Cl)cc2s1)[C@H]1CCc2c(c3cc(F)ccc3n2CC(=O)O)C1 reads 8.17

Noted for CN(c1ncc(Cl)cn1)C1CCc2c(c3cc(Cl)ccc3n2CC(=O)O)C1 (centres unmarked) : its pIC50 reads 8.70

pIC50 measured on O=C(O)Cn1c2c(c3cc(F)ccc31)C[C@H](Nc1ncc(F)cn1)CC2 = 7.57

* * *

Entries annotated with measured IC50
Biological target: hCRTH2 receptor (Homo sapiens (Human), UniProt Q9Y5Y4)
Sequence (Q9Y5Y4 whole entry): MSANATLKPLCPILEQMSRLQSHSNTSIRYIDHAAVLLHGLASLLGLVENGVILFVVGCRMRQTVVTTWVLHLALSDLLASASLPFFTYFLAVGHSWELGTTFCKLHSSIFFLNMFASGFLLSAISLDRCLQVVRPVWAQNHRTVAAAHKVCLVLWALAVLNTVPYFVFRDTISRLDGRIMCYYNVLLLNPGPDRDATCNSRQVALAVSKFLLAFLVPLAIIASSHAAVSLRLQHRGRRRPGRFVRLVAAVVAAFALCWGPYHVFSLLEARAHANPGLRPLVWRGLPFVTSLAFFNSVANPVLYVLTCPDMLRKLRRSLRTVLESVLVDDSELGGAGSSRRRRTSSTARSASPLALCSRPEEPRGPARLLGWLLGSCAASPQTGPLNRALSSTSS
Assay: hCRTH2 receptor membranes radioligand displacement assay (3H-PGD2)
Conditions: 3H-PGD2 2.5 nM, HEK293-hCRTH2 membranes, Binding-Buffer with 0.1% BSA
Please reply with the bare figure in µM and do not write the unit itself.

1) CN(c1nc(C(F)(F)F)nc2ccccc12)[C@H]1CCc2c(c3cc(F)ccc3n2CC(=O)O)C1	0.016
2) O=C(O)Cn1c2c(c3cc(F)ccc31)C[C@@H](Nc1ncc(F)cn1)CC2	0.016
3) CN(c1ncc(C(F)(F)F)cn1)[C@@H]1CCc2c(c3cc(F)ccc3n2CC(=O)O)C1	0.141

Next, consider the following compound.
// CN(c1nc2ccccc2o1)[C@H]1CCc2c(c3cc(F)ccc3n2CC(=O)O)C1 : IC50 value = 0.0073

* * *

Molecular target: hCRTH2 receptor (Homo sapiens (Human), UniProt Q9Y5Y4)
Test: Radioligand displacement assay in presence of human serum albumin (HSA)
Details: 3H-PGD2 2.5 nM, Binding-Buffer with 0.5% HSA instead of 0.1% BSA
Reported IC50 by item:
Output spec: scalar in nM, unitless text.

1) CN(c1nc2ccccc2o1)[C@H]1CCc2c(c3cc(F)ccc3n2CC(=O)O)C1 [Example 19]	17
2) CN(c1ncc(Cl)cn1)C1CCc2c(c3cc(OC(F)(F)F)ccc3n2CC(=O)O)C1 (stereo not shown) [Example 56]	303
3) O=C(O)Cn1c2c(c3cc(F)ccc31)C[C@@H](N(CC(F)F)c1ncc(Cl)cn1)CC2 [Example 41]	68
4) CN(c1ncc(Cl)cn1)C1CCc2c(c3cc(Cl)ccc3n2CC(=O)O)C1 (stereo not shown) [Example 54]	3
5) CN(c1ncc(C(F)(F)F)cn1)[C@H]1CCc2c(c3cc(F)ccc3n2CC(=O)O)C1 [Example 11]	15

// assay hCRTH2 receptor (Homo sapiens (Human), UniProt Q9Y5Y4), entry CN(c1ncc(-c2ccccc2)cn1)[C@H]1CCc2c(c3cc(F)ccc3n2CC(=O)O)C1 [Example 30] , IC50 value = 41

CN(c1ncc(C2CC2)cn1)[C@H]1CCc2c(c3cc(F)ccc3n2CC(=O)O)C1 [Example 42] tested on hCRTH2 receptor (Homo sapiens (Human), UniProt Q9Y5Y4) gave IC50: 36

Tested system hCRTH2 receptor (Homo sapiens (Human), UniProt Q9Y5Y4); IC50 recorded for COc1cnc(N(C)[C@H]2CCc3c(c4cc(F)ccc4n3CC(=O)O)C2)nc1 [Example 31] was 43

The observed IC50 for Cc1cc(N(C)C2CCc3c(c4cc(F)ccc4n3CC(=O)O)C2)no1 (stereo not shown) [Example 52] when tested with hCRTH2 receptor (Homo sapiens (Human), UniProt Q9Y5Y4) stands at 58

* * *

Target: hCRTH2 receptor (Homo sapiens (Human), UniProt Q9Y5Y4)
Test: Radioligand displacement assay in presence of human serum albumin (HSA)
Details: 3H-PGD2 2.5 nM, Binding-Buffer with 0.5% HSA instead of 0.1% BSA
Entries and their measured log10(IC50) follow.
Recorded IC50 (log10, nM)

// COc1ccc2c(c1)c1c(n2CC(=O)O)CCC(N(C)c2ncc(Cl)cn2)C1 (stereo not drawn) [Example 57] : log10(IC50) value = 1.75

* * *

This section presents molecules with their documented IC50 values.
Target: hCRTH2 receptor (Homo sapiens (Human), UniProt Q9Y5Y4)
Experiment: Radioligand displacement assay in presence of human serum albumin (HSA)
Details: 3H-PGD2 2.5 nM, Binding-Buffer with 0.5% HSA instead of 0.1% BSA
Procedure: First, recombinant HEK293-hCRTH2 cells were detached from culture plates into 5 ml buffer A/plate (Buffer A: 5 mM Tris, 1 mM MgCl2-6H2O pH=7.4) using a rubber policeman. Cells were then transferred into centrifugation tubes and centrifuged for 5 min at 400 g. […] Binding assay was performed in a final assay volume of 250 μl. […] Then, 40 μl of Microscint-40 (Packard) was added to each well and the retained radioactivity quantified in a Topcount (Packard). […]
API: value field is a number in nM; no unit string.

1) CN(c1ccc(Cl)cn1)[C@H]1CCc2c(c3cc(F)ccc3n2CC(=O)O)C1 [Example 37]	13

Notebook: CN(c1ncc(Cl)cn1)[C@H]1CCc2c(c3cc(F)ccc3n2CC(=O)O)C1 [Example 9] , IC50 read as 11

The measured IC50 associated with CN(c1cnc2ccccc2n1)[C@H]1CCc2c(c3cc(F)ccc3n2CC(=O)O)C1 [Example 44] reads 176

// field: IC50; key: CN(c1nc2cc(F)ccc2s1)[C@H]1CCc2c(c3cc(F)ccc3n2CC(=O)O)C1 [Example 39] ; value = 6

* * *

Target: hCRTH2 receptor (Homo sapiens (Human), UniProt Q9Y5Y4)
Experiment: Radioligand displacement assay in presence of human serum albumin (HSA)
Conditions: 3H-PGD2 2.5 nM, Binding-Buffer with 0.5% HSA instead of 0.1% BSA
endpoint_name: pIC50
Field pIC50 (float): negative decimal logarithm of the concentration in molar.

1. CN(c1ncc(Cl)cn1)C1CCc2c(c3ccccc3n2CC(=O)O)C1 (centres unmarked)	7.80
2. CN(c1nc2ccc(Cl)cc2o1)[C@H]1CCc2c(c3cc(F)ccc3n2CC(=O)O)C1	7.68
3. CN(c1nc(C(F)(F)F)cs1)C1CCc2c(c3cc(F)ccc3n2CC(=O)O)C1 (centres unmarked)	6.40
4. CN(c1nc2ccc(F)cc2s1)[C@H]1CCc2c(c3cc(F)ccc3n2CC(=O)O)C1	8.05
5. Cc1ccc2c(c1)c1c(n2CC(=O)O)CCC(N(C)c2ncc(Cl)cn2)C1 (centres unmarked)	7.40
6. CN(c1ncc2ccccc2n1)[C@H]1CCc2c(c3cc(F)ccc3n2CC(=O)O)C1	7.66
7. CN(c1ccc(C(F)(F)F)cn1)[C@H]1CCc2c(c3cc(F)ccc3n2CC(=O)O)C1	7.70
8. CN(c1nc2ccc(Cl)cc2s1)[C@H]1CCc2c(c3cc(F)ccc3n2CC(=O)O)C1	7.70

Measured pIC50 of CCCN(c1ncc(Cl)cn1)[C@H]1CCc2c(c3cc(F)ccc3n2CC(=O)O)C1 : 7.77

Item: O=C(O)Cn1c2c(c3cc(F)ccc31)C[C@H](Nc1ncc(Cl)cn1)CC2 | pIC50: 7.57
